Experimental System: UniProtKB P14061
Assay Name: Inhibition of 17beta-HSD1 (unknown origin) expressed in HEK293 cells lysate
Reported Endpoint: IC50
# output: number + unit

The compound listed as "Cc1cc(S(=O)(=O)Nc2cccc(O)c2)c(C)cc1Cl" shows IC50 equal to 18 µM

###

Experimental System: 17-beta-hydroxysteroid dehydrogenase type 1 (Homo sapiens)
Sequence (P14061 whole entry): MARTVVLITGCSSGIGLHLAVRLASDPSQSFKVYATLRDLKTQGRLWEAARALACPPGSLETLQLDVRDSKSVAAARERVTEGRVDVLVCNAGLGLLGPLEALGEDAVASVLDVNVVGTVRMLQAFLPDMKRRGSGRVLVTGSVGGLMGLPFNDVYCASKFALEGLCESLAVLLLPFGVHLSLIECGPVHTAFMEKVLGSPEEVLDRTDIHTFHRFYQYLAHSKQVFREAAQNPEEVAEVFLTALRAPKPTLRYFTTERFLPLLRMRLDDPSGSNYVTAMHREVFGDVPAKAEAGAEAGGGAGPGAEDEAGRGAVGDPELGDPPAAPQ
Assay Name: Inhibition of 17beta-HSD1 (unknown origin) expressed in HEK293 cells lysate assessed as residual enzyme activity at 20 uM
Type: cell-free
For each record, write down the corresponding Activity.

Return reported Activity values for all items listed beneath this line.
1. Cc1cc(C)c(S(=O)(=O)Nc2cccc(O)c2)cc1C
2. COc1cc(C)c(S(=O)(=O)Nc2cccc(O)c2)cc1C
3. COc1ccc(S(=O)(=O)Nc2ccc(O)c3c2CCCC3)cc1

1. > 70%
2. > 70%
3. > 70%
